# Tested on: CWR22-RV1 cells
# EXPERIMENT_SUMMARY: CWR22-RV1 cell proliferation (CellTiter 96)
# Type: cell-based, human
# MEASUREMENT_PARAMETERS: RNAiMax, dose 16.7 nM, 6 days
Oligonucleotides are written 5' to 3', each unit as a sugar letter and its base; * is a phosphorothioate linkage, no mark a phosphodiester; rarer units and linkages stand in square brackets, end groups in braces. Plain capitals give the bases only. e = 2'-O-(2-methoxyethyl) (MOE); k = constrained ethyl (cEt); [5mC] = 5-methylcytosine; d = 2'-deoxy (DNA)
Think of 20% as a floor: if Percent inhibition of cell proliferation stands on it or above, it is 1.0; beneath it, 0.0.

GTTGATTTAATGGTTG (all phosphorothioate, sugars by position not given here; further chemistry not fully specified) [ISIS 549458] = 0.0
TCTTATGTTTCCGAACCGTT (sugars from the 5' end e5 d10 e5, backbone and methylation of C not given here) [ISIS 347526, reference compound] = 0.0
ACCAAGTTTCTTCAGC (LNA gapmer, phosphorothioate backbone, further chemistry not given here) [ISIS 554221, 3-10-3 LNA gapmer, phosphorothioate backbone, targeted to exon 4 of AR; benchmark, reference compound] = 1.0
AAGTTGTAGTAGTCGC (kA*kA*kG*dT*dT*dG*dT*dA*dG*dT*dA*dG*dT*k[5mC]*kG*k[5mC]) [ISIS 549372, targets exon 1] = 1.0
CTAAACTTCCCGTGGC (k[5mC]*kT*kA*dA*dA*d[5mC]*dT*dT*d[5mC]*d[5mC]*d[5mC]*dG*dT*kG*kG*k[5mC]) [ISIS 549434, targets 3'-end of exon 8] = 0.0

----------
# System: AR mRNA
# EXPERIMENT_SUMMARY: Antisense inhibition of human AR in HuVEC cells, single concentration (electroporation, qRT-PCR RTS3559)
# Format: cell-based
# MEASUREMENT_PARAMETERS: Table 28, 1,000 nM oligonucleotide, electroporation, approximately 24 hours, relative to untreated control
Oligonucleotides are written 5' to 3', each unit as a sugar letter and its base; * is a phosphorothioate linkage, no mark a phosphodiester; rarer units and linkages stand in square brackets, end groups in braces. Plain capitals give the bases only. k = constrained ethyl (cEt); [5mC] = 5-methylcytosine; d = 2'-deoxy (DNA)
EXPERIMENTAL_ENDPOINT: % inhibition (%)

549372 (kA*kA*kG*dT*dT*dG*dT*dA*dG*dT*dA*dG*dT*k[5mC]*kG*k[5mC]) [compound 549372] = 54
584495 (kA*kT*kG*dG*dT*dT*dG*dT*d[5mC]*d[5mC]*dT*dG*dT*kA*k[5mC]*kA; antisense) [compound 584495] = 53
549458 (kG*kT*kT*dG*dA*dT*dT*dT*dA*dA*dT*dG*dG*kT*kT*kG) [compound 549458] = 65
584469 (kT*kT*kT*dG*dG*dT*dA*dA*d[5mC]*dA*dT*dT*dA*kG*kG*k[5mC]; antisense) [compound 584469] = 63

----------
Below: a set of entries, each annotated with reported pIC50.
# System: AR mRNA
# EXPERIMENT_SUMMARY: Dose-dependent antisense inhibition of human AR in HuVEC cells (electroporation, qRT-PCR RTS3559, IC50)
# Assay type: cell-based
# MEASUREMENT_PARAMETERS: Table 30; HuVEC, electroporation, approximately 16 hours
pIC50: −log10 of the molar value. Oligonucleotides are written 5' to 3', each unit as a sugar letter and its base; * is a phosphorothioate linkage, no mark a phosphodiester; rarer units and linkages stand in square brackets, end groups in braces. Plain capitals give the bases only. k = constrained ethyl (cEt); [5mC] = 5-methylcytosine; d = 2'-deoxy (DNA)
EXPERIMENTAL_ENDPOINT: pIC50

583689 (antisense kA*kT*kG*d[5mC]*dG*dG*dT*dA*dG*dT*d[5mC]*dG*d[5mC]*kT*kG*k[5mC]) [compound 583689] = 6.36
583642 (antisense kA*kG*kT*dG*dT*d[5mC]*d[5mC]*dA*d[5mC]*dT*dG*dA*dA*kG*kT*kA) [compound 583642] = 6.34
583712 (antisense k[5mC]*k[5mC]*kT*dT*dG*dA*dG*d[5mC]*dT*dT*dG*dG*d[5mC]*kT*kG*kA) [compound 583712] = 6.54
583692 (antisense kG*kT*kG*dA*dT*dG*dA*dT*dG*d[5mC]*dG*dG*dT*kA*kG*kT) [compound 583692] = 6.36
549458 (kG*kT*kT*dG*dA*dT*dT*dT*dA*dA*dT*dG*dG*kT*kT*kG) [compound 549458] = 6.89
583637 (antisense kA*kT*k[5mC]*dT*d[5mC]*dT*dG*dG*d[5mC]*dT*d[5mC]*d[5mC]*dG*k[5mC]*kA*k[5mC]) [compound 583637] = 6.35
583728 (antisense kG*k[5mC]*kT*d[5mC]*dT*dG*dG*dA*dA*d[5mC]*dA*dG*dA*kT*kT*k[5mC]) [compound 583728] = 6.40
583667 (antisense k[5mC]*kG*k[5mC]*dT*d[5mC]*dT*dG*dA*d[5mC]*dA*dG*d[5mC]*d[5mC]*kT*k[5mC]*kA) [compound 583667] = 6.85
583709 (antisense kG*k[5mC]*kT*dT*dG*dG*d[5mC]*dT*dG*dA*dA*dT*d[5mC]*kT*kT*k[5mC]) [compound 583709] = 6.54
583745 (antisense k[5mC]*kG*k[5mC]*dT*d[5mC]*dG*d[5mC]*dG*dG*d[5mC]*d[5mC]*dT*d[5mC]*kT*kG*kG) [compound 583745] = 6.57
583738 (antisense kG*kT*kT*d[5mC]*dT*dG*dG*dA*dT*d[5mC]*dA*d[5mC]*dT*kT*k[5mC]*kG) [compound 583738] = 6.29
549372 (kA*kA*kG*dT*dT*dG*dT*dA*dG*dT*dA*dG*dT*k[5mC]*kG*k[5mC]) [compound 549372] = 6.43
583734 (antisense kT*k[5mC]*kA*d[5mC]*dT*dT*d[5mC]*dG*d[5mC]*dG*d[5mC]*dA*d[5mC]*kG*k[5mC]*kT) [compound 583734] = 6.92

----------
# Test system: AR mRNA
# EXPERIMENT_SUMMARY: AR mRNA levels in LMR20 cells (with/without DHT or R1881)
# Format: cell-based, human
# MEASUREMENT_PARAMETERS: LMR20 cells, R1881 10 nM 72 hrs, ASO 5.0 μM
Oligonucleotides are written 5' to 3', each unit as a sugar letter and its base; * is a phosphorothioate linkage, no mark a phosphodiester; rarer units and linkages stand in square brackets, end groups in braces. Plain capitals give the bases only. e = 2'-O-(2-methoxyethyl) (MOE); l = locked nucleic acid (LNA); k = constrained ethyl (cEt); [5mC] = 5-methylcytosine; d = 2'-deoxy (DNA)
EXPERIMENTAL_ENDPOINT: AR mRNA levels (% baseline value) after treatment with R1881

569236 (antisense eT*kG*kA*kT*dT*dT*dA*dA*dT*dG*dG*kT*kT*kG*e[5mC]*eA) [compound 569236] = 37
554221 (ACCAAGTTTCTTCAGC; sugars from the 5' end l3 d10 l3, all phosphorothioate, methylation of C not given here) [compound 554221] = 99
549458 (kG*kT*kT*dG*dA*dT*dT*dT*dA*dA*dT*dG*dG*kT*kT*kG) [compound 549458] = 32
560131 (antisense kT*kT*kG*dA*dT*dT*dT*dA*dA*dT*dG*dG*kT*kT*kG*e[5mC]) [compound 560131] = 26

----------
Listed below: percent inhibition of AR, 3000.0 nM values for each entry.
# Tested on: AR mRNA
# EXPERIMENT_SUMMARY: Dose-dependent antisense inhibition of human AR in HuVEC cells (electroporation, qRT-PCR RTS3559, IC50)
# Format: cell-based
# MEASUREMENT_PARAMETERS: Table 36; 3000.0 nM, HuVEC, electroporation, approximately 16 hours
Oligonucleotides are written 5' to 3', each unit as a sugar letter and its base; * is a phosphorothioate linkage, no mark a phosphodiester; rarer units and linkages stand in square brackets, end groups in braces. Plain capitals give the bases only. k = constrained ethyl (cEt); [5mC] = 5-methylcytosine; d = 2'-deoxy (DNA)
EXPERIMENTAL_ENDPOINT: percent inhibition of AR, 3000.0 nM (%)

584361 (k[5mC]*kT*kT*d[5mC]*dA*dT*dT*dG*d[5mC]*dA*dG*dG*dT*k[5mC]*kT*kG; antisense) [compound 584361] = 87
584468 (k[5mC]*kA*kT*dT*dG*dT*dA*d[5mC]*dT*dA*dT*dG*d[5mC]*k[5mC]*kA*kG) [compound 584468] = 90
584168 (k[5mC]*kT*kG*dA*dT*dT*dA*dG*d[5mC]*dT*dA*dT*dG*kA*k[5mC]*k[5mC]; antisense) [compound 584168] = 91
584269 (k[5mC]*k[5mC]*kT*dT*dA*dT*dG*dG*dA*dT*dG*d[5mC]*dT*kG*k[5mC]*kT) [compound 584269] = 92
549458 (kG*kT*kT*dG*dA*dT*dT*dT*dA*dA*dT*dG*dG*kT*kT*kG) [compound 549458] = 96
584274 (kG*kT*kT*dA*dT*d[5mC]*dT*dT*dA*d[5mC]*dT*d[5mC]*dT*k[5mC]*k[5mC]*k[5mC]; antisense) [compound 584274] = 93
